ASSAY_NOTES: Whole blood concentrations in mice after IP dosing (LC-MS/MS)
Type: in vivo, mouse
COND: mouse, whole blood, intraperitoneal, 2 mg/kg, 2 mg/kg IP QD × 3 days; Day 1; 24.0 hrs; read-out: Formula II Concentrations in Mouse Whole Blood, Mean
QUANTITY_KIND: concentration at 24 h (ng/mL)
Answers are plain numbers, in ng/mL.

**Q:** Fill in the blank: the reported concentration at 24 h of CO[C@H]1C[C@@H]2CC[C@@H](C)[C@@](O)(O2)C(=O)C(=O)N2CCCC[C@H]2C(=O)O[C@H]([C@H](C)C[C@H]2C[C@H]3C[C@@H]2C[C@@H]3O)CC(=O)[C@H](C)/C=C(\C)[C@@H](O)[C@@H](OC)C(=O)[C@H](C)C[C@H](C)/C=C/C=C/C=C/1C is ____.
**A:** 15.1

* * *

ASSAY_NOTES: Pharmacokinetics in male Sprague Dawley rats (intravenous and oral)
Assay type: in vivo, rat
COND: rat, blood; male Sprague Dawley rats; single bolus oral dose of 10 mg/kg
Procedure: Table 6 provides the pharmacokinetic parameters of Example (I) in male Sprague Dawley rats after a single bolus intravenous dose of 2 mg/kg. […] These parameters are then analyzed by non-compartmental or compartmental methods to give a calculated percentage bioavailability, for an example of this type of method see Gallant-[…] et al, 2000 and […] et al, 1998, and references therein.
QUANTITY_KIND: half-life (h)
Answers are plain numbers, in h.

**Q:** May I ask what half-life has been recorded for CO[C@H]1C[C@@H]2CC[C@@H](C)[C@@](O)(O2)C(=O)C(=O)N2CCCC[C@H]2C(=O)O[C@H]([C@H](C)C[C@H]2C[C@H]3C[C@@H]2C[C@@H]3O)CC(=O)[C@H](C)/C=C(\C)[C@@H](O)[C@@H](OC)C(=O)[C@H](C)C[C@H](C)/C=C/C=C/C=C/1C ?
**A:** 5.46

* * *

ASSAY_NOTES: Whole blood concentrations in mice after IP dosing (LC-MS/MS)
Assay type: in vivo, mouse
COND: mouse, whole blood, intraperitoneal, 2 mg/kg, 2 mg/kg IP QD × 3 days; Day 2; 6.00 hrs; read-out: Formula II Concentrations in Mouse Whole Blood, Mean
QUANTITY_KIND: concentration at 6 h (ng/mL)
One number for each entry, in ng/mL.

**Q:** Would you mind telling me what concentration at 6 h value was observed for CO[C@H]1C[C@@H]2CC[C@@H](C)[C@@](O)(O2)C(=O)C(=O)N2CCCC[C@H]2C(=O)O[C@H]([C@H](C)C[C@H]2C[C@H]3C[C@@H]2C[C@@H]3O)CC(=O)[C@H](C)/C=C(\C)[C@@H](O)[C@@H](OC)C(=O)[C@H](C)C[C@H](C)/C=C/C=C/C=C/1C ?
**A:** 579

* * *

ASSAY_NOTES: Pharmacokinetics in male Sprague Dawley rats (intravenous and oral)
Type: in vivo, rat
COND: rat, blood; male Sprague Dawley rats; single bolus intravenous dose of 2 mg/kg; read-out: Cmax (maximum blood concentration)
QUANTITY_KIND: Cmax (ng/mL)
Give bare numbers, in ng/mL.

**Q:** Item under review: CO[C@H]1C[C@@H]2CC[C@@H](C)[C@@](O)(O2)C(=O)C(=O)N2CCCC[C@H]2C(=O)O[C@H]([C@H](C)C[C@H]2C[C@H]3C[C@@H]2C[C@@H]3O)CC(=O)[C@H](C)/C=C(\C)[C@@H](O)[C@@H](OC)C(=O)[C@H](C)C[C@H](C)/C=C/C=C/C=C/1C . Reported Cmax?
**A:** 912
